pIC50: −log10 of the molar value.
Across several publications, the following pIC50 results were reported for Prostaglandin G/H synthase 1 (Homo sapiens).
Assign class by pIC50: not lower than 4 means true; lower than 4 means false.

Has Cc1nc(-c2ccccc2)c(-c2ccc(S(N)(=O)=O)cc2)s1 a recorded pIC50 greater than or equal to 4?
true

Has CC(C)(C)c1ccc(-c2nc(-c3ccc(F)cc3)c(-c3ccc(S(C)(=O)=O)cc3)s2)cc1 a recorded pIC50 greater than or equal to 4?
false

Has CS(=O)(=O)c1ccc(-c2cnn(Cc3ccccc3)c(=O)c2-c2ccccc2)cc1 a recorded pIC50 greater than or equal to 4?
true

Has O=[N+]([O-])c1cccc(Oc2ccc(OCCN3CCCC3)cc2)c1 a recorded pIC50 greater than or equal to 4?
false

Has Oc1cc(O)cc(/C=C/c2ccc(C(F)(F)F)cc2)c1 a recorded pIC50 greater than or equal to 4?
true

Has CC(C)c1cc(-c2ccc3c(c2)[C@H](N)CO3)cc([C@H](O)Cn2ccc3cccc(C(=O)O)c32)c1 a recorded pIC50 greater than or equal to 4?
true

Has Oc1ccc([C@H]2Oc3ccc(/C=C/c4cc(O)cc(O)c4)cc3[C@@H]2c2cc(O)cc(O)c2)cc1 a recorded pIC50 greater than or equal to 4?
true

Has NS(=O)(=O)c1ccc(-n2cc(C(F)(F)F)nc2-c2cccc(Br)c2)cc1 a recorded pIC50 greater than or equal to 4?
true

Has O=Cc1ccc2c(c1)C=C(C(=O)O)C(C(F)(F)F)O2 (configuration not stated) a recorded pIC50 greater than or equal to 4?
false

Has Cc1ccc2[nH]cc(CCNC(=O)c3ccccc3Nc3ccccc3)c2c1 a recorded pIC50 greater than or equal to 4?
true

Has Cc1nc(-c2ccccc2)c(-c2ccc(S(C)(=O)=O)cc2)o1 a recorded pIC50 greater than or equal to 4?
false

Has O=c1cc(CSc2nnc(CSc3nc4cc(Cl)ccc4o3)o2)c2ccc3ccccc3c2o1 a recorded pIC50 greater than or equal to 4?
false

Has CCCc1cc(OC(F)(F)F)cc2c1O[C@H](C(F)(F)F)C(C(=O)O)=C2 a recorded pIC50 greater than or equal to 4?
true

Has COc1ccc(/C=C/c2cc(OC)cc(OC)c2/C=C/C(=O)N2CC(C)CC(C)C2)cc1 (configuration not stated) a recorded pIC50 greater than or equal to 4?
true

Has C/C(=C\c1cc(O)cc(O)c1)c1ccc(C(F)(F)F)cc1 a recorded pIC50 greater than or equal to 4?
true

Has Cc1ccncc1-c1nc(C(F)(F)F)cn1-c1ccc(S(C)(=O)=O)cc1 a recorded pIC50 greater than or equal to 4?
false

Has CS(=O)(=O)c1ccc(-c2c(-c3ccccc3)sc3nc(C(F)(F)F)nn23)cc1 a recorded pIC50 greater than or equal to 4?
true

Has COc1ccc(N2C(=O)CSC2c2ccc(S(C)(=O)=O)cc2)cc1 (configuration not stated) a recorded pIC50 greater than or equal to 4?
false

Has CCOc1ccc(-n2cc(CSc3nc4ccccc4o3)nn2)cc1 a recorded pIC50 greater than or equal to 4?
false

Has N#Cc1c(/N=C/c2ccc(Cl)cc2)c(C(=O)Nc2ccc(Br)cc2)n2c1CCC2 a recorded pIC50 greater than or equal to 4?
false

Has C[C@@]1(CO)C=Cc2cc(O)ccc2O1 a recorded pIC50 greater than or equal to 4?
true

Has Nc1cccc(C(=O)Nc2cccc(C(F)(F)F)c2)c1 a recorded pIC50 greater than or equal to 4?
false

Has Cc1ccsc1-c1nc(C(F)(F)F)cn1-c1ccc(S(C)(=O)=O)cc1 a recorded pIC50 greater than or equal to 4?
false

Has Cc1ccc(S(=O)(=O)N2N=C(C(F)(F)F)CC2c2cccc3c2OCO3)cc1 (configuration not stated) a recorded pIC50 greater than or equal to 4?
true

Has COc1cc(C2Oc3cc(C=Cc4cc(O)cc(O)c4)ccc3OC2CO)cc(OC)c1O (configuration not stated) a recorded pIC50 greater than or equal to 4?
true

Has Cc1nc(-c2ccc(S(C)(=O)=O)cc2)c(-c2ccc(F)cc2)o1 a recorded pIC50 greater than or equal to 4?
false

Has CC/C=C/C/C=C/C/C=C/C/C=C/CC/C=C/COCC(=O)O a recorded pIC50 greater than or equal to 4?
true

Has CC(O)CN1c2ccccc2Sc2ccccc21 (configuration not stated) a recorded pIC50 greater than or equal to 4?
true

Has O=C(COc1ccc(Cl)cc1Cl)N/N=C1/SCC(=O)N1c1ccc(Br)cc1 a recorded pIC50 greater than or equal to 4?
false

Has CS(=O)(=O)c1ccc(-c2sc3nc(C(F)(F)F)nn3c2-c2ccccc2)cc1 a recorded pIC50 greater than or equal to 4?
true

Has O=C(NCCc1c[nH]c2ccc(Cl)cc12)c1ccccc1Nc1ccccc1 a recorded pIC50 greater than or equal to 4?
true
